Assay: Stability in human liver microsomes assessed as compound remaining measured after 60 mins in presence of NADPH by LC-MS/MS analysis
Format: ADME
Conditions: read-out: Stability
measurement_kind: remaining at 1 h
Answers without a unit are incomplete; give the number and then its unit.

CCC(=O)Nc1cc(Cl)c(Oc2ccc(O)c(-c3ccccc3)c2)c(Cl)c1 has a reported remaining at 1 h of 63%

* * *

Molecular target: Epoxide hydrolase 1 (Homo sapiens, UniProt P07099)
Sequence (P07099 whole entry): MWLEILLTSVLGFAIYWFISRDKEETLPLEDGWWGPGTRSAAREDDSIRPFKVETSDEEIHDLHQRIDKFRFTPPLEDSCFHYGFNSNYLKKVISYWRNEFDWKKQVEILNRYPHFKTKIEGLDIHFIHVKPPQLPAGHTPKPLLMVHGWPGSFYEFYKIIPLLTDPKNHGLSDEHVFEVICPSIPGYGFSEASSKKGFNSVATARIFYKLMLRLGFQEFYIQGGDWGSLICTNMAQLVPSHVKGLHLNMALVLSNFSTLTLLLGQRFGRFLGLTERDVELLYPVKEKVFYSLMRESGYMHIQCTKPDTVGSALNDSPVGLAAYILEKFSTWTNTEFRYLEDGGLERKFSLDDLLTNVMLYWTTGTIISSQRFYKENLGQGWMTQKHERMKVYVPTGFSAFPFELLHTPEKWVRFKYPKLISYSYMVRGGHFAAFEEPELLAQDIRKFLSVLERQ
Assay: Inhibition of recombinant human mEH expressed in baculovirus expression system assessed as formation of 6-methoxy-2-naphthaldehyde preincubated for 5 mins followed by addition of CMNGC as substrate by fluorescent-based assay
I'd appreciate it if you could supply IC50 values for the items below.
Output should be the measured figure followed by the unit it is expressed in.

Sample answers from the record:
CCC(=O)Nc1cc(Cl)c(Oc2ccc(O)c(-c3ccc(C(N)=O)cc3)c2)c(Cl)c1 : 17.2 µM
CCCCCCCCCSC(C)C(N)=O (centres undefined) : 6 µM

I have 2 compounds here; please give me IC50 for each one.
1. CCC(=O)Nc1cc(Cl)c(Oc2ccc(O)c(-c3ccc(C(C)=O)cc3)c2)c(Cl)c1
2. CCC(=O)Nc1cc(Cl)c(Oc2ccc(O)c(-c3ccc(NC(N)=O)cc3)c2)c(Cl)c1

1. 97.8 µM
2. 26.3 µM

Provenance of the data: ChEMBL document CHEMBL3822419
